- target-or-test-system: recombinant homotrimeric HA A/duck/Yangzhou/02/05 H8N4 (Influenza A virus A/duck/Yangzhou/02/2005(H8N4))
- assay-text: protein microarray, purified IgG, trimeric HA
- details: remark: other sources report otherwise
endpoint-label: Trimeric HA Binding: RLU (RLU)

• TCN-529 (5297_H01) (antibody, V domains shown) VH: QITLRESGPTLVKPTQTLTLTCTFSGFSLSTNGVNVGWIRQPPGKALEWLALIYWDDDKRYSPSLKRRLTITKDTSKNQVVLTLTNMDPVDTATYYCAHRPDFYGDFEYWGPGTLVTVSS VL: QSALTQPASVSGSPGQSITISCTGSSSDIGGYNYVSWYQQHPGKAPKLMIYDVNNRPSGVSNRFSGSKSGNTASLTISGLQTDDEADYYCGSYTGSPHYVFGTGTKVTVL = 737
• TCN-536 (5095_N01) (antibody, V domains shown) VH: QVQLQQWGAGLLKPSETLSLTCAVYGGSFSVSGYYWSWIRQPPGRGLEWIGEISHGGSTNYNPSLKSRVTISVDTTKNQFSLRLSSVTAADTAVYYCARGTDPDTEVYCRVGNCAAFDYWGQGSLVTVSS VL: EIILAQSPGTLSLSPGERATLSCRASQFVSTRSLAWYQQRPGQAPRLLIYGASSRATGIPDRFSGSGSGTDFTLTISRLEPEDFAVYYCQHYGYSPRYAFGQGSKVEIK = 251
